Tested on: MDA-MB-231
Assay: NCI tumour cell line growth inhibition, 48 h
Active and inactive are the calls of the source. Rule as the data show it: active = GI50 up to about 1.1 µM and inactive = higher.
Lab note: assign the record to one of active, inactive

Consider the worked cases shown below.
{"COMPOUND": "C=C(Br)CN(C)CC(=C)Br", "ASSAYED_SYSTEM": "MDA-MB-231", "ASSIGNED_CATEGORY": "inactive"}
{"COMPOUND": "CN=C(n1ccnc1)n1ccnc1", "ASSAYED_SYSTEM": "MDA-MB-231", "ASSIGNED_CATEGORY": "inactive"}

Request: Please state the recorded outcome for this compound: `CCCC(=O)Oc1c2ccsc2c(OC(=O)CCC)c2ccsc12`
Response: inactive

Request: Can you check `CC/C=C(\C(=C/CC)[N+](=O)[O-])[N+](=O)[O-]` next?
Response: inactive

Request: Also CC(C)=CCC/C(C)=C/CC/C(C)=C/CC(CO)N(C)CC/C=C(\C)CCC=C(C)C (configuration not stated) , if possible.
Response: inactive
